# test: in vitro
# measurement-parameters: human, plasma
assay-endpoint: half-life

Request: I have this compound here, O=c1nc(N2CCN(CC3CCCCC3)CC2)sc2c([N+](=O)[O-])cc(C(F)(F)F)cc12 , and I need its recorded half-life.
Result: > 1 h

----------
# Test system: M. tuberculosis strain H37Rv
# test: In vivo efficacy in the acute murine TB model
# Parameters: species or system mice
# measurement-parameters: 4 weeks treatment, intragastric 5 times a week, compounds and BTZ043 50 mg/kg, isoniazid 25 mg/kg
Entries and their measured Log of CFU lungs follow.
// no unit, no text: just the number

Use these answered entries as a reference point.
INSERT INTO results (compound, observed_result) VALUES
  ('C[C@H]1COC2(CCN(c3nc(=O)c4cc(C(F)(F)F)cc([N+](=O)[O-])c4s3)CC2)O1 [BTZ043, reference compound]', 4.78),
  ('NNC(=O)c1ccncc1 [Izoniazid, Isoniazid, reference compound]', 4.34),
  ('CCCN1CCN(c2nc(=O)c3cc(C(F)(F)F)cc([N+](=O)[O-])c3s2)CC1', 4.63);

The record that follows has no Log of CFU lungs shown yet.
Request: Item O=c1nc(N2CCN(CC3CCCCC3)CC2)sc2c([N+](=O)[O-])cc(C(F)(F)F)cc12 has what recorded Log of CFU lungs?
Result: 4.30

----------
# test: Acute toxicity after administration per os
# measurement-parameters: mouse, in vivo, mice
List of LD50 at 7 days values.

INSERT INTO measurements (compound, observed_result) VALUES
  ('O=c1nc(N2CCN(CC3CCCCC3)CC2)sc2c([N+](=O)[O-])cc(C(F)(F)F)cc12 [Compound 2]', '> 2000 mg/kg');

Request: Would you kindly share the measured LD50 at 7 days for O=c1nc(N2CCN(CCCOc3ccc(F)cc3)CC2)sc2c([N+](=O)[O-])cc(C(F)(F)F)cc12 [Compound 18] ?
Result: > 2000 mg/kg

----------
Target or system M. smegmatis: recorded MIC listed per item.

Solved entries (count: 3):
INSERT INTO measurements (compound, tested_system, observed_result) VALUES
  ('O=c1nc(N2CCN(CCCC3CCCCC3)CC2)sc2c([N+](=O)[O-])cc(C(F)(F)F)cc12', 'M. smegmatis', '≤ 1.9 ng/mL'),
  ('O=c1nc(N2CCN(CCCC3CCCCC3)CC2)sc2c([N+](=O)[O-])cc(Cl)cc12', 'M. smegmatis', '≤ 1.9 ng/mL'),
  ('O=c1nc(N2CCN(CCC3CCCCC3)CC2)sc2c([N+](=O)[O-])cc(C(F)(F)F)cc12', 'M. smegmatis', '≤ 1.9 ng/mL');

Request: Give the measured MIC of CCC(C)N1CCN(c2nc(=O)c3cc(C(F)(F)F)cc([N+](=O)[O-])c3s2)CC1 (stereo not shown) .
Result: ≤ 1.9 ng/mL

----------
Parameter MIC, tested on M. smegmatis, listed per item.

A selection of reference data follows.
INSERT INTO results (compound, observed_result) VALUES
  ('CCCC(C)N1CCN(c2nc(=O)c3cc(C(F)(F)F)cc([N+](=O)[O-])c3s2)CC1 (stereo not shown) [Compound 7]', '≤ 0.0019 µg/mL'),
  ('O=c1nc(N2CCN(C34CC5CC(CC(C5)C3)C4)CC2)sc2c([N+](=O)[O-])cc(C(F)(F)F)cc12 [Compound 15]', '0.062 µg/mL'),
  ('CC(C)CN1CCN(c2nc(=O)c3cc(C(F)(F)F)cc([N+](=O)[O-])c3s2)CC1 [Compound 4]', '≤ 0.0019 µg/mL');

Request: What value of MIC on M. smegmatis does O=c1nc(N2CCN(CC3CCCCC3)CC2)sc2c([N+](=O)[O-])cc(C(F)(F)F)cc12 [Compound 2] have?
Result: ≤ 0.17 µg/mL

----------
assay-endpoint: melting point

Examples with answers:
INSERT INTO results (compound, assay_endpoint, observed_result) VALUES
  ('CCCCCCCN1CCN(c2nc(=O)c3cc(C(F)(F)F)cc([N+](=O)[O-])c3s2)CC1', 'melting point', '125 to 127 °C'),
  ('CCC(C)N1CCN(c2nc(=O)c3cc(C(F)(F)F)cc([N+](=O)[O-])c3s2)CC1 (stereo not shown)', 'melting point', '127 to 128 °C'),
  ('O=c1nc(N2CCN(CCCCOc3ccccc3)CC2)sc2c([N+](=O)[O-])cc(C(F)(F)F)cc12', 'melting point', '256 to 258 °C'),
  ('O=c1nc(N2CCN(C34CC5CC(CC(C5)C3)C4)CC2)sc2c([N+](=O)[O-])cc(C(F)(F)F)cc12', 'melting point', '236 to 238 °C');

Request: # input compound: CCCCN1CCN(c2nc(=O)c3cc(C(F)(F)F)cc([N+](=O)[O-])c3s2)CC1 ; wanted: its melting point
Result: 119 to 120 °C

Request: What value of melting point has been recorded for this entry: O=c1nc(N2CCN(CCOCc3ccccc3)CC2)sc2c([N+](=O)[O-])cc(C(F)(F)F)cc12
Result: 117 to 119 °C

Request: GET /values?readout=melting point&item= O=c1nc(N2CCN(CCCC3CCCCC3)CC2)sc2c([N+](=O)[O-])cc(Cl)cc12
Result: 194 to 195 °C

----------
Measured melting point values are reported for all entries that follow.

INSERT INTO assay_data (compound, assay_endpoint, observed_result) VALUES
  ('O=c1nc(N2CCN(Cc3ccncc3)CC2)sc2c([N+](=O)[O-])cc(C(F)(F)F)cc12', 'melting point', '200 to 202 °C'),
  ('O=c1nc(N2CCN(C3CCCCC3)CC2)sc2c([N+](=O)[O-])cc(C(F)(F)F)cc12', 'melting point', '189 to 191 °C'),
  ('CCCCCN1CCN(c2nc(=O)c3cc(C(F)(F)F)cc([N+](=O)[O-])c3s2)CC1', 'melting point', '133 to 134 °C'),
  ('CCCC(C)N1CCN(c2nc(=O)c3cc(C(F)(F)F)cc([N+](=O)[O-])c3s2)CC1 (stereo not shown)', 'melting point', '132 to 133 °C'),
  ('CCC(CC)N1CCN(c2nc(=O)c3cc(C(F)(F)F)cc([N+](=O)[O-])c3s2)CC1', 'melting point', '152 to 153 °C');

Request: Need melting point, item O=c1nc(N2CCN(CCCC3(c4ccc(F)cc4)OCCO3)CC2)sc2c([N+](=O)[O-])cc(C(F)(F)F)cc12
Result: 152 to 154 °C

Request: What melting point value was documented for this compound, O=c1nc(N2CCN(CCC3CCCCC3)CC2)sc2c([N+](=O)[O-])cc(C(F)(F)F)cc12 ?
Result: 175 to 177 °C

----------
assay-endpoint: melting point

INSERT INTO measurements (structure_smiles, assay_endpoint, observed_result) VALUES
  ('O=c1nc(N2CCN(CCCOc3ccc(F)cc3)CC2)sc2c([N+](=O)[O-])cc(Cl)cc12', 'melting point', '192 to 194 °C'),
  ('COCCCN1CCN(c2nc(=O)c3cc(C(F)(F)F)cc([N+](=O)[O-])c3s2)CC1', 'melting point', '133 to 134 °C'),
  ('CC(C)CN1CCN(c2nc(=O)c3cc(C(F)(F)F)cc([N+](=O)[O-])c3s2)CC1', 'melting point', '150 to 153 °C');

Request: Report melting point for O=c1nc(N2CCN(CCCC3CCCCC3)CC2)sc2c([N+](=O)[O-])cc(C(F)(F)F)cc12 please.
Result: 145 to 147 °C

----------
Consider compounds characterized by their MIC with M. smegmatis.
Give the value, in units of µg/mL, as a plain number.

Solved cases below.
INSERT INTO measurements (structure_smiles, observed_result) VALUES
  ('O=c1nc(N2CCN(Cc3ccncc3)CC2)sc2c([N+](=O)[O-])cc(C(F)(F)F)cc12', 0.062),
  ('O=c1nc(N2CCN(CCOCc3ccccc3)CC2)sc2c([N+](=O)[O-])cc(C(F)(F)F)cc12', 0.031);

Request: Fill in the recorded MIC for this compound, with M. smegmatis as test system: O=c1nc(N2CCN(CCCC3(c4ccc(F)cc4)OCCO3)CC2)sc2c([N+](=O)[O-])cc(C(F)(F)F)cc12
Result: 0.00375

----------
# Tested on: M. smegmatis
Each entry below carries its reported MIC.

INSERT INTO measurements (structure_smiles, assay_endpoint, observed_result) VALUES
  ('CCCCN1CCN(c2nc(=O)c3cc(C(F)(F)F)cc([N+](=O)[O-])c3s2)CC1', 'MIC', '≤ 0.17 µg/mL');

Request: Form field: reported MIC of CCCCCN1CCN(c2nc(=O)c3cc(C(F)(F)F)cc([N+](=O)[O-])c3s2)CC1
Result: ≤ 0.0019 µg/mL

Request: Which MIC is listed for COCCCN1CCN(c2nc(=O)c3cc(C(F)(F)F)cc([N+](=O)[O-])c3s2)CC1 ?
Result: 0.031 µg/mL

Request: Which MIC is reported for this compound? O=c1nc(N2CCN(C3CCCCC3)CC2)sc2c([N+](=O)[O-])cc(C(F)(F)F)cc12
Result: ≤ 0.17 µg/mL

Request: Consider the compound O=c1nc(N2CCN(CCCCOc3ccccc3)CC2)sc2c([N+](=O)[O-])cc(C(F)(F)F)cc12 and give its measured MIC.
Result: ≤ 0.0019 µg/mL

Request: For CCCCCCCN1CCN(c2nc(=O)c3cc(C(F)(F)F)cc([N+](=O)[O-])c3s2)CC1 , what is its reported MIC?
Result: ≤ 0.0019 µg/mL

Value source: patent US8796264B2
